Would you mind telling me the reported AUC(0-t) of each entry?
- method: Pharmacokinetic test in rats
- Format: in vivo, male SD rats
- details: male, SD, rat, plasma, intravenous administration 1 mg/kg
Give the value, in units of ng·h/mL, as a plain number.

Query: Requested field: AUC(0-t). Item: C[C@@H](Cc1cnn[nH]1)OCC(=O)N1Cc2cnc(NC3Cc4ccccc4C3)nc2C1 [Compound I-2S]
Response: 661

Query: Now the same for C[C@@H](OCCc1c[nH]nn1)C(=O)N1Cc2cnc(NC3Cc4ccccc4C3)nc2C1 [Compound I-1R]
Response: 828

###

- method: Thermodynamic solubility test
- Assay type: physicochemical
- details: FeSSIF solution, thermodynamic from solid; FeSSIF, pH 5.8, thermodynamic; read-out: Dissolubility FeSSIF (pH 5.8)
Kindly supply the reported solubility values for the records listed here.
Give the quantity in µg/mL, number only.

Query: For the molecule C[C@H](Cc1cnn[nH]1)OCC(=O)N1Cc2cnc(NC3Cc4ccccc4C3)nc2C1 , what solubility is on record?
Response: 260

Query: Further, for C[C@@H](OCCc1c[nH]nn1)C(=O)N1Cc2cnc(NC3Cc4ccccc4C3)nc2C1 ?
Response: 20.4
